- tested_on: mFFA4 (mouse FFA4) (Mus musculus)
- experiment_summary: Ca2+ mobilisation, Fura-2, Flp-In T-REx […]
experimental_endpoint: EC50 (µM)
Provide only the numeric value, understood in µM.

Retrieve EC50 measured for CC/C=C\C/C=C\C/C=C\CCCCCCCC(=O)O [aLA] and print it. 10

---

- tested_on: mFFA4 (mouse FFA4) (Mus musculus, UniProt Q7TMA4)
- Sequence (Q7TMA4 whole entry): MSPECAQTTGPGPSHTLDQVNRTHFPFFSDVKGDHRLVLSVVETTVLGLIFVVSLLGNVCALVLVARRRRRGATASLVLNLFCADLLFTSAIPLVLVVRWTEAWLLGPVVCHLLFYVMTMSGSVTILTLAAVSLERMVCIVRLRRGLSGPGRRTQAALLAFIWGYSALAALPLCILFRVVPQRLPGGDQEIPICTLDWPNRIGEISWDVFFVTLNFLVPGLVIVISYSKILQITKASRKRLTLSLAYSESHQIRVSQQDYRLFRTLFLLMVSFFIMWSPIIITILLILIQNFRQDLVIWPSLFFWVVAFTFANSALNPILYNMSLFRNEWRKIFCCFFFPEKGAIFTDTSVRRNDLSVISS
- experiment_summary: bystander BRET arrestin-3 recruitment, HEK293T
experimental_endpoint: IC50

Please give measured IC50 of the following entry: Cc1ccc(S(=O)(=O)NC2c3ccccc3Oc3ccccc32)cc1 [AH7614] 200 nM
